test system: CD8F1 mice, subcutaneous mammary adenocarcinoma, T/C%; assay: NCI In Vivo Anticancer Drug Screen. Data for tumor model Mammary Adenocarcinoma CD8F1 (subcutaneous) in CD8F1; conditions: endpoint: median tumor weight (est.); dose: 100.0 mg/kg/injection; schedule: Q07DX005 (ip); vehicle: saline; higher = larger tumour
Records with an inconclusive call do not appear.
readout-name: T/C

Prompt line: Value wanted: T/C (CD8F1 mice, subcutaneous mammary adenocarcinoma, T/C%) of entry N=C(N)SCc1c2ccccc2c(CSC(=N)N)c2ccccc12
Response line: 107 % of control

Prompt line: Could you share what T/C was measured for O=C1C=CN(C2OC(CO)C(O)C2O)C(=O)C1 (stereo not given) , tested on CD8F1 mice, subcutaneous mammary adenocarcinoma, T/C%?
Response line: 120 % of control

Prompt line: Identify the measured T/C of COc1ccc(/C=C/C(=O)c2cc(C(=O)O)c(OC)cc2OC)cc1OC for CD8F1 mice, subcutaneous mammary adenocarcinoma, T/C%.
Response line: 84 % of control

Prompt line: // map Cc1ccccc1N(CC1CO1)CC1CO1 (stereo not given) to recorded T/C (system: CD8F1 mice, subcutaneous mammary adenocarcinoma, T/C%)
Response line: 79 % of control

Prompt line: Provide value of T/C for this record tested with CD8F1 mice, subcutaneous mammary adenocarcinoma, T/C%: C[N+](C)(C)c1ncnc2nc[nH]c12
Response line: 259 % of control

Prompt line: Recall the recorded T/C for CNc1nc(N(C)C)nc(N(C)C)n1 with CD8F1 mice, subcutaneous mammary adenocarcinoma, T/C% and state it.
Response line: 48 % of control

Prompt line: Query for CD8F1 mice, subcutaneous mammary adenocarcinoma, T/C%: what T/C does the record show for Cc1cn(C2CC3[O][Sn]([c]4ccccc4)([c]4ccccc4)[O]CC3O2)c(=O)[nH]c1=O (stereo not given) ?
Response line: 49 % of control

Prompt line: GET /values?readout=T/C&system=CD8F1 mice, subcutaneous mammary adenocarcinoma, T/C%&item= N/C=N/O
Response line: 164 % of control

Prompt line: Any idea what T/C came out for N=c1ccn2c(n1)OC1C(O)C(CO)OC12 (stereo not given) on CD8F1 mice, subcutaneous mammary adenocarcinoma, T/C%?
Response line: 111 % of control

Prompt line: Query T/C on CD8F1 mice, subcutaneous mammary adenocarcinoma, T/C% for OCC1(CO)COC2(CCCCC2)N1
Response line: 105 % of control

Prompt line: Entry O=c1cnn(C2OC(CO)C(O)C2O)c(=O)[nH]1 (stereo not given) , system CD8F1 mice, subcutaneous mammary adenocarcinoma, T/C%: what T/C was measured?
Response line: 17 % of control

Prompt line: Observed T/C on CD8F1 mice, subcutaneous mammary adenocarcinoma, T/C% for CCCCCCCCCCCCCCCCP(=O)(OCCOCCCCCC)OCCOCCCCCC , please.
Response line: 55 % of control

Prompt line: Field: T/C (CD8F1 mice, subcutaneous mammary adenocarcinoma, T/C%). Entry: NC(=O)NO
Response line: 116 % of control

Prompt line: Form field - read-out: T/C; system: CD8F1 mice, subcutaneous mammary adenocarcinoma, T/C%; submitted item: O=P1(NCCCl)OCCCN1CCCl (stereo not given)
Response line: 6 % of control

Prompt line: Lab request: please report T/C under test system CD8F1 mice, subcutaneous mammary adenocarcinoma, T/C% for OCC1OC(n2cnc3c(Cl)ncnc32)C(O)C1O (stereo not given)
Response line: 28 % of control

---

Test system: CD8F1 mice, subcutaneous mammary adenocarcinoma, T/C%
Test: NCI In Vivo Anticancer Drug Screen. Data for tumor model Mammary Adenocarcinoma CD8F1 (subcutaneous) in CD8F1
Conditions: endpoint: median tumor weight (est.); dose: 50.0 mg/kg/injection; schedule: Q07DX005 (ip); vehicle: suspension in saline; higher = larger tumour
Experimental: The antitumor activity of compounds was measured in mice bearing transplantable tumors. Survival or tumor size were measured and the results are expressed as the measurement made in the treated group (T) divided by the measurement made in the vehicle treated control group (C). The tumor model used in this assay is Mammary Adenocarcinoma CD8F1 (subcutaneous) in CD8F1
Inconclusive results are not listed.
Provide the recorded T/C for the entries that follow.

Prompt line: Reported T/C for Nc1nc(=S)c2ncn(C3CC(O)C(CO)O3)c2[nH]1 (centres undefined) : what is it?
Response line: 72 % of control

Prompt line: Can you share its T/C? I mean this compound: O=CC(=O)c1ccc(O)cc1
Response line: 123 % of control

Prompt line: Fill in the blank: the reported T/C of N=C(N)Sc1ccccn1 is ____.
Response line: 103 % of control

Prompt line: Tell me the measured T/C of CCCCCCCCCCCCCCCCCC(=O)Nc1ccn(C2OC(CO)C(O)C2O)c(=O)n1 (centres undefined) , please.
Response line: 45 % of control

Prompt line: // T/C lookup, key: CN(N=O)C(N)=O
Response line: 31 % of control

Prompt line: Which T/C reading was recorded for the compound C1OC1CO[C@@H]1CO[C@H]2[C@@H]1OC[C@H]2OCC1CO1 (some centres undefined) ?
Response line: 64 % of control

Prompt line: Please give the measured T/C for this compound: [I][Hg][CH2]C1COC([CH2][Hg][I])CO1 (centres undefined)
Response line: 27 % of control

Prompt line: What does the record list as T/C for CCOC(=O)c1c[nH]c2oc(/C=N/N3CC(CN4CCOCC4)OC3=O)cc2c1=O (centres undefined) ?
Response line: 97 % of control

Prompt line: Query (compound): NC(=S)c1ncn(C2OC(CO)C(O)C2O)c1N (centres undefined) ; field requested: T/C
Response line: 49 % of control

---

test system: CD8F1 mice, subcutaneous mammary adenocarcinoma, T/C%; assay: NCI In Vivo Anticancer Drug Screen. Data for tumor model Mammary Adenocarcinoma CD8F1 (subcutaneous) in CD8F1; details: endpoint: median tumor weight (est.); dose: 16.0 mg/kg/injection; schedule: Q07DX005 (ip); vehicle: saline; higher = larger tumour
Records with an inconclusive call do not appear.
readout-name: T/C

Prompt line: Name the recorded T/C for COc1ccc(C(=O)/C(Br)=C/C(=O)O)cc1 .
Response line: 120 % of control

Prompt line: Item Nc1ncn(C2OC(CO)C(O)C2O)c(=O)n1 (centres undefined) has what recorded T/C?
Response line: 3 % of control

Prompt line: Endpoint output: T/C of COc1cc([C@@H]2c3cc4c(cc3[C@@H](OC3OC5CO[C@@H](c6cccs6)OC5C(O)C3O)[C@H]3COC(=O)[C@H]23)OCO4)cc(OC)c1O (some centres undefined) . Value?
Response line: 47 % of control

Prompt line: // lookup T/C for Nc1nc([Se])c2ncn(C3OC(CO)C(O)C3O)c2n1 (centres undefined)
Response line: 70 % of control

---

tested on: CD8F1 mice, subcutaneous mammary adenocarcinoma, T/C%; assay: NCI In Vivo Anticancer Drug Screen. Data for tumor model Mammary Adenocarcinoma CD8F1 (subcutaneous) in CD8F1; conditions: endpoint: median tumor weight (est.); dose: 6.25 mg/kg/injection; schedule: Q07DX005 (ip); vehicle: Klucel (hydroxypropylcellulose) (HPC); higher = larger tumour
Results filed as inconclusive are left out.
readout-name: T/C

Prompt line: Reported T/C for CC1(C)CC(=O)C(CSC(=O)c2ccccc2)C(=O)C1 : what is it?
Response line: 182 % of control

Prompt line: Recorded T/C for Cc1nn(CCO)c(C)c1N=[N+]([O-])c1c(C)nn(CCO)c1C , please?
Response line: 57 % of control

Prompt line: Query (molecule): O=C(Nc1ccc(Cl)c(Cl)c1)Nc1c(Oc2ccc(Cl)c(Cl)c2)ccc(Cl)c1S(=O)(=O)O ; field requested: T/C
Response line: 114 % of control

Prompt line: Would you kindly share the measured T/C for CNC(=O)OCc1c(COC(=O)NC)c(C)n(-c2ccc(OC)cc2)c1C ?
Response line: 113 % of control

Prompt line: For the molecule shown here, S=c1nc[nH]c2nc[nH]c12 , give the reported T/C.
Response line: 78 % of control

Prompt line: Query: T/C; subject: CN(C(=S)S(=O)(=O)C12CC3CC(CC(C3)C1)C2)c1ccccc1
Response line: 66 % of control

---

tested on: CD8F1 mice, subcutaneous mammary adenocarcinoma, T/C%; test: NCI In Vivo Anticancer Drug Screen. Data for tumor model Mammary Adenocarcinoma CD8F1 (subcutaneous) in CD8F1; conditions: endpoint: median tumor weight (est.); dose: 8.0 mg/kg/injection; schedule: Q07DX005 (ip); vehicle: saline; higher = larger tumour
Results filed as inconclusive are left out.
Kindly state T/C for each of the entries shown.

Prompt line: Request the reported T/C associated with Cc1c(N)nc(C(CC(N)=O)NCC(N)C(N)=O)nc1C(=O)NC(C(=O)NC(C)C(O)CC(=O)NC(C(=O)NC(OC1OC(C)C(N)C(O)C1O)C(O)c1nc(-c2nc(C(=O)NCCCC(N)CC(=O)NCCCNCCCCN)cs2)cs1)C(C)O)C(OC1OC(CO)C(O)C(O)C1OC1OC(CO)C(O)C(OC(N)=O)C1O)c1cnc[nH]1 (configuration not stated)
Response line: 10 % of control

Prompt line: Look up T/C for this compound: COc1cccc2c1C(=O)c1c(O)c3c(c(O)c1C2=O)C[C@@](O)(/C(C)=N/NC(=O)c1cccc([N+](=O)[O-])c1)C[C@@H]3OC1CC(N)C(O)C(C)O1 (some centres not stated)
Response line: 41 % of control

Prompt line: Quick one: T/C of Cc1c(N)nc([C@H](CC(N)=O)NC[C@H](N)C(N)=O)nc1C(=O)N[C@H](C(=O)N[C@H](C)[C@@H](O)CC(=O)N[C@H](C(=O)NC(O[C@@H]1O[C@@H](C)[C@@H](N)[C@@H](O)[C@H]1O)C(O)c1nc(-c2nc(C(=O)NCCCCN)cs2)cs1)[C@@H](C)O)[C@@H](O[C@@H]1O[C@@H](CO)[C@@H](O)[C@H](O)[C@@H]1O[C@H]1O[C@H](CO)[C@@H](O)[C@H](OC(N)=O)[C@@H]1O)c1c[nH]cn1 (some centres not stated) ?
Response line: 5 % of control

Prompt line: Look at this compound and give its reported T/C. CCCCCCCC(=O)OCC(=O)[C@]1(O)Cc2c(O)c3c(c(O)c2[C@@H](OC2CC(N)C(O)C(C)O2)C1)C(=O)c1c(OC)cccc1C3=O (some centres not stated)
Response line: 11 % of control

Prompt line: Give its T/C value. Item: COc1cc([C@@H]2c3cc4c(cc3[C@@H](OC3OC5COC(C)OC5C(O)C3O)[C@H]3COC(=O)[C@H]23)OCO4)cc(OC)c1O (some centres not stated)
Response line: 51 % of control

Prompt line: Fill in: T/C of COc1cc2c(cc1O)N=C[C@@H]1CCC(O)N1C2=O (mixture of isomers) is ___
Response line: 160 % of control

Prompt line: Quick one: T/C of Nc1ncn(C2OC(CO)C(O)C2O)c(=O)n1 (configuration not stated) ?
Response line: 20 % of control

Reference for the values: PubChem BioAssay AID220
